Measured Target: hTGR5 (Homo sapiens, UniProt Q8TDU6)
Sequence (Q8TDU6 1-330): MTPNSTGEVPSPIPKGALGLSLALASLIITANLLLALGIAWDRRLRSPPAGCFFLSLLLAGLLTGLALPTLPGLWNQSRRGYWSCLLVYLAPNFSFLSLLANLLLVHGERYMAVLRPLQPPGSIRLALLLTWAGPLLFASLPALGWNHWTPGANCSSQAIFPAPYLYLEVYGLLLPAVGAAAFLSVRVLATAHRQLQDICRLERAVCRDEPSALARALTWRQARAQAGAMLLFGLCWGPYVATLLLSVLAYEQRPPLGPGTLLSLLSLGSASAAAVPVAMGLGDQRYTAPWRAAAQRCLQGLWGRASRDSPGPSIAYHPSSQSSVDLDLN
Experiment Description: TGR5/CRE Luciferase Assay (hTGR5)
Applied Conditions: HEK 293 cells co-transfected with pCMV tag4b-TGR5h and pCRE TA-Luciferase; overnight incubation
Here the recorded EC50 is given for each entry.
Express it in µM; write the number only.

Take a look at these entries with their results.
[[record]]
compound = "CCCCN1C(=O)CC(c2ccc(Cl)cc2)C(C(=O)OCc2ccccc2)=C1C (centres unmarked)"
observed_property = "EC50"
unit_of_measure = "µM"
observed_value = 0.6

[[record]]
compound = "CC1=C(C(=O)OCc2ccccc2)C(c2ccc(Cl)cc2)CC(=O)N1CC(=O)OC(C)(C)C (centres unmarked)"
observed_property = "EC50"
unit_of_measure = "µM"
observed_value = 1.34

[[record]]
compound = "COCCN1C(=O)CC(c2ccc(Cl)cc2)C(C(=O)OCc2cccc(C(F)(F)F)c2)=C1C (centres unmarked)"
observed_property = "EC50"
unit_of_measure = "µM"
observed_value = 0.5

[[record]]
compound = "C#CCN1C(=O)CC(c2ccc(Cl)cc2)C(C(=O)OCc2ccccc2)=C1C (centres unmarked)"
observed_property = "EC50"
unit_of_measure = "µM"
observed_value = 0.9

[[record]]
compound = "COCCN1C(=O)CC(c2ccc(Cl)cc2)C(C(=O)OCc2cccc(C(=O)OC)c2)=C1C (centres unmarked)"
observed_property = "EC50"
unit_of_measure = "µM"
observed_value = 1.1

[[record]]
compound = "CC1=C(C(=O)OCc2ccccc2)C(c2ccc(Cl)cc2)CC(=O)N1CC#N (centres unmarked)"
observed_property = "EC50"
unit_of_measure = "µM"
observed_value = 2.2

[[record]]
compound = "CC1=C(C(=O)OCc2ccccc2)C(c2ccc(Cl)cc2)CC(=O)N1CC1C[N+](C)(C)C1.[I-] (centres unmarked)"
observed_property = "EC50"
unit_of_measure = "µM"
observed_value = 12

[[record]]
compound = "COCCN1C(=O)CC(c2ccc(Cl)cc2)C(C(=O)OCC2CCCCC2)=C1C (centres unmarked)"
observed_property = "EC50"
unit_of_measure = "µM"
observed_value = 1.1


Measured EC50 for this entry COCCCN1C(=O)CC(c2ccc(Cl)cc2)C(C(=O)OCc2ccccc2OC)=C1C (centres unmarked) on hTGR5 (Homo sapiens, UniProt Q8TDU6): 0.2

Measured EC50 for this entry COCCN1C(=O)CC(c2ccc(Cl)cc2Cl)C(C(=O)OCc2ccccc2OC)=C1C (centres unmarked) on hTGR5 (Homo sapiens, UniProt Q8TDU6): 0.4

Measured EC50 for this entry COCCN1C(=O)CC(c2ccc(Cl)cc2)C(C(=O)OCc2cccc(Cl)c2)=C1C (centres unmarked) on hTGR5 (Homo sapiens, UniProt Q8TDU6): 0.2

Measured EC50 for this entry COCCN1C(=O)CC(c2ccc(Cl)cc2)C(C(=O)OCc2ccc(Cl)cc2)=C1C (centres unmarked) on hTGR5 (Homo sapiens, UniProt Q8TDU6): 0.4

Measured EC50 for this entry `CC1=C(C(=O)OCc2ccc(OCCCCS(=O)(=O)O)cc2)[C@H](c2ccc(Cl)cc2)CC(=O)N1C[C@H]1CCCO1` on hTGR5 (Homo sapiens, UniProt Q8TDU6): 0.03

Measured EC50 for this entry COCCN1C(=O)CC(c2ccc(Cl)cc2)C(C(=O)OCc2cccc(OC)c2)=C1C (centres unmarked) on hTGR5 (Homo sapiens, UniProt Q8TDU6): 0.5

---

Measured Target: mTGR5 (Mus musculus)
Sequence (Q80SS6 1-329): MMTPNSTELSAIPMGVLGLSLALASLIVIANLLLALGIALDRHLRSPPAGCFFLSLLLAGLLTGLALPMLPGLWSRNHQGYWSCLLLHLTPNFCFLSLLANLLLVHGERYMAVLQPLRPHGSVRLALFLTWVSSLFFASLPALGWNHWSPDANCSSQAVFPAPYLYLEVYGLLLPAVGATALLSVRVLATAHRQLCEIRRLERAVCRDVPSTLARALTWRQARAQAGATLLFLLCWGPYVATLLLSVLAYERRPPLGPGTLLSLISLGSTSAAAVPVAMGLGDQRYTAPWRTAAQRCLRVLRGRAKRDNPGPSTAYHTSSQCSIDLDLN
Experiment Description: TGR5/CRE Luciferase Assay (mTGR5)
Applied Conditions: HEK 293 cells co-transfected with pCMV AC6-TGR5m and pCRE TA-Luciferase; overnight incubation
Decision: EC50 beneath 400 nM gives fulfilled; EC50 meeting or exceeding 400 nM gives not fulfilled.

[[record]]
compound = "COc1ccccc1COC(=O)C1=C(C)N(C[C@H]2CCCO2)C(=O)C[C@H]1c1ccc2nsnc2c1 (racemic)"
measured_target = "mTGR5 (Mus musculus)"
category_label = "fulfilled"

[[record]]
compound = "COCCCN1C(=O)CC(c2ccc(Cl)cc2)C(C(=O)OCc2ccccc2OC)=C1C (centres unmarked)"
measured_target = "mTGR5 (Mus musculus)"
category_label = "not fulfilled"

[[record]]
compound = "COc1ccccc1COC(=O)C1=C(C)N(C[C@H]2CCCO2)C(=O)C[C@H]1c1cccnc1Cl (racemic)"
measured_target = "mTGR5 (Mus musculus)"
category_label = "not fulfilled"

[[record]]
compound = "CC1=C(C(=O)OCc2ccccc2)C(c2ccc(Cl)cc2)CC(=O)N1CCN(C)C (centres unmarked)"
measured_target = "mTGR5 (Mus musculus)"
category_label = "not fulfilled"

[[record]]
compound = "COc1cccc(C2CC(=O)NC(C)=C2C(=O)OCc2ccccc2)c1 (centres unmarked)"
measured_target = "mTGR5 (Mus musculus)"
category_label = "not fulfilled"


Consider the additional compound presented here.
API: query returns whether the compound falls strictly under 400 nM in EC50. Query: COc1ccccc1COC(=O)C1=C(C)N(CCO)C(=O)CC1c1ccc(Cl)cc1 (centres unmarked) fulfilled

---

Measured Target: mTGR5 (Mus musculus)
Sequence (Q80SS6 1-329): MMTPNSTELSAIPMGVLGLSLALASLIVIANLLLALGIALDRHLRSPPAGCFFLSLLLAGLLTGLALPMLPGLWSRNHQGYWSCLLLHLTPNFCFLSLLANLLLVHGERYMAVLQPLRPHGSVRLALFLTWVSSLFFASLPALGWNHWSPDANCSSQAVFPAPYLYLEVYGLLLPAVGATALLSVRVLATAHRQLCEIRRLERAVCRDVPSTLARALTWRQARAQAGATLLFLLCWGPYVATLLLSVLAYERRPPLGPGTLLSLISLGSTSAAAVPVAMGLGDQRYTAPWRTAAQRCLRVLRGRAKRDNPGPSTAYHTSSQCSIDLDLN
Experiment Description: TGR5/CRE Luciferase Assay (mTGR5)
Applied Conditions: HEK 293 cells co-transfected with pCMV AC6-TGR5m and pCRE TA-Luciferase; overnight incubation
pEC50: −log10 of the molar value.
Assign TRUE whenever pEC50 does not fall below 6; assign FALSE whenever it does.

Answered cases to consult:
[[record]]
compound = "CCOC(=O)CN1C(=O)CC(c2ccc(Cl)cc2)C(C(=O)OCc2ccccc2OC)=C1C (stereo not shown) [Compound 69]"
category_label = "TRUE"

[[record]]
compound = "CC1=C(C(=O)OCc2cccnc2)[C@H](c2ccc(Cl)cc2)CC(=O)N1C[C@H]1CCCO1 (racemic) [Example 146]"
category_label = "TRUE"

[[record]]
compound = "COCCN1C(=O)CC(c2ccc(Cl)cc2)C(C(=O)OCc2ccccc2F)=C1C (stereo not shown) [Example 84]"
category_label = "TRUE"

[[record]]
compound = "CC1=C(C(=O)OCc2ccccn2)[C@H](c2ccc(Cl)cc2)CC(=O)N1C[C@H]1CCCO1 (racemic) [Example 145]"
category_label = "FALSE"

[[record]]
compound = "COCCN1C(=O)CC(c2ccc(Cl)cc2)C(C(=O)OCc2ccc(-c3ccccc3)cc2)=C1C (stereo not shown) [Example 108]"
category_label = "TRUE"

[[record]]
compound = "COC(=O)CN1C(=O)CC(c2ccc(Cl)cc2)C(C(=O)OCc2ccccc2OC)=C1C (stereo not shown) [Compound 73]"
category_label = "TRUE"

[[record]]
compound = "COCCN1C(=O)CC(c2ccc(Cl)cc2)C(C(=O)OCC(=O)c2ccccc2)=C1C (stereo not shown) [Example 112]"
category_label = "FALSE"

[[record]]
compound = "COCCOc1ccc(COC(=O)C2=C(C)N(C[C@H]3CCCO3)C(=O)C[C@H]2c2ccc(Cl)cc2)cc1 (racemic) [Example 136]"
category_label = "TRUE"

[[record]]
compound = "COCCN1C(=O)CC(c2ccc(Cl)cc2)C(C(=O)NCc2ccccc2)=C1C (stereo not shown) [Example 75]"
category_label = "FALSE"

[[record]]
compound = "CC1=C(C(=O)OCc2ccccc2)C(c2ccc(Cl)cc2)CC(=O)N1Cc1nc(C)no1 (stereo not shown) [Compound 59]"
category_label = "FALSE"


Entry COCCN1C(=O)CC(c2ccc(Cl)c(Cl)c2)C(C(=O)OCc2ccccc2OC)=C1C (stereo not shown) [Example 127] : is its pEC50 no less than 6? TRUE

Entry COCCN1C(=O)CC(c2ccc(Cl)cc2)C(C(=O)OCc2ccc(OCCC[N+](C)(C)C)cc2)=C1C.[I-] (stereo not shown) [Example 117] : is its pEC50 no less than 6? FALSE
